This collection of values is drawn from ChEMBL document CHEMBL1201862.

# Tested on: MCF7
# protocol: NCI tumour cell line growth inhibition, 48 h
Calls of active or inactive are those of the source. Cut-off read from the data, not from the text of the source: active = GI50 up to about 1.1 µM and inactive = higher.
Hi there, use one of these labels in your reply, thanks! T = active, F = inactive

compound	measured target	assigned class
COc1ccc(C(OCC2OC(n3ccc(Oc4c(F)c(F)c(F)c(F)c4F)nc3=O)CC2OP(OCCC#N)N(C(C)C)C(C)C)(c2ccccc2)c2ccc(OC)cc2)cc1 (stereo not drawn)	MCF7	F
CC(C)(O)[C@@H]1CC[C@](C)(C2[C@@H](O)C[C@@]3(C)C4C[C@H](OC5OCC(O)C(O)C5O)[C@H]5C(C)(C)[C@@H](OC6OCC(O)C(O)C6OC6OCC(O)C(O)C6O)CC[C@@]56C[C@@]46CC[C@]23C)O1 (stereo partly drawn)	MCF7	F
COc1ccc(OC2OC(CO)C(OCc3ccccc3)C(OCc3ccccc3)C2OCc2ccccc2)cc1 (stereo not drawn)	MCF7	F
O=C1O[C@H]2[C@@H]3OC(=O)c4cc(O)c(O)c(O)c4-c4c(cc(O)c(O)c4O)C(=O)OC[C@H]2O[C@@H](OC(=O)c2cc(O)c(O)c(O)c2)[C@@H]3OC(=O)c2cc(O)c(O)c3c2[C@@H]2C1=CC(=O)C(O)(O)C2(O)O3 (stereo partly drawn)	MCF7	F
CCOC(=O)c1cc(Sc2ccc(N)c(C(=O)OCC)c2)ccc1N	MCF7	F
C=CCC1(OC(C)=O)C2OC(=O)C1(O)OCC2O (stereo not drawn)	MCF7	F

Request: Which outcome did this test record for the compound CCN(CC)CC(O)CNc1ccc(NCC(O)CCl)c2c1C(=O)c1ccccc1C2=O (stereo not drawn) ?
Result: F

Request: Outcome logged for CC(O)(c1ccccc1)c1nccc2ccccc12 (stereo not drawn) in this assay:
Result: F

Request: Recorded test call requested for `O=[N+]([O-])c1ccc(/C=C(/c2ccc([N+](=O)[O-])o2)S(=O)(=O)c2ccccc2)o1`
Result: F

Request: Test call for this compound, please: `CN(CCc1ccc(Br)cc1)CCN1CCCCC1`
Result: F

###

# Tested on: A549
# protocol: NCI tumour cell line growth inhibition, 48 h
Calls of active or inactive are those of the source. No stated cut-off is given here; in the data, active = GI50 up to about 1.1 µM and inactive = higher.
quantity: GI50

Request: // lookup GI50 for `Cc1sc2c(c1C)C(=O)c1cccn1-2`
Result: 60.5 µM (inactive)

Request: Requested read-out: GI50. Entry: COC(C)(C)[C@@H](O)[C@H]1C[C@H](C)[C@@]2(CC[C@]3(C)[C@@H]2CC[C@@H]2[C@@]4(C)CC[C@@H](OC(C)=O)C(C)(C)[C@@H]4C[C@@H](OC4OC(COC(C)=O)C(O)C(O)C4O)[C@]23C)O1 (some centres not stated)
Result: 4.01 µM (inactive)

Request: Any idea what its GI50 is? The compound is `Cc1cc(-c2nc3ccccc3s2)ccc1NC(=O)[C@H](C)N`
Result: 13.7 µM (inactive)

###

# Test system: IGROV-1
# protocol: NCI tumour cell line growth inhibition, 48 h
Active and inactive are the calls of the source. No stated cut-off is given here; in the data, active = GI50 up to about 1.1 µM and inactive = higher.
quantity: GI50

Here's what some known entries look like.
compound	quantity	reading
O=C(C#CP(=O)(O)c1ccccc1)c1ccccc1	GI50	> 100 µM (inactive)
CC(=O)OCC1OC(OC2CC3C(C)(C)C(=O)CC[C@]3(C)C3CC[C@]45C[C@]4(CCC5[C@@H](C)CC(O)C(O)C(C)(C)O)[C@]23C)C(O)C(O)C1O (stereo partly specified)	GI50	11.1 µM (inactive)
CCn1c2ccccc2n2c(=O)c3c(c(C#N)c12)CCCC3	GI50	> 100 µM (inactive)

Request: Given `Fc1cccc2nc(-c3ccccc3)cc(OCc3ccccc3)c12` , state its recorded GI50.
Result: > 100 µM (inactive)

Request: Fill blank: measured GI50 of the compound `N#Cc1c(-c2ccccc2)cc(-c2ccc(Cl)cc2)[nH]c1=S` is ____.
Result: 26.7 µM (inactive)

Request: Given the entry CCCC(=O)OCC1OC2OC(C)(C)OC2C2OC(C)(C)OC12 (stereo unspecified) , report its measured GI50.
Result: > 100 µM (inactive)

Request: Query (compound): `O=C(/C=C/c1ccccc1F)c1ccc([N+](=O)[O-])cc1` ; field requested: GI50
Result: 24.3 µM (inactive)

Request: Fill in: GI50 of COC1CCON1C(=O)c1ccccc1 (stereo unspecified) is ___
Result: > 10 µM (inactive)

Request: Given the entry `O=C(CSc1nc2ccc(I)cc2c(=O)n1Cc1ccccc1)N/N=C/c1ccccc1` , report its measured GI50.
Result: 14.8 µM (inactive)

Request: Suppose we examine the compound COC(=O)C([C@H]1CC[C@H](OCc2ccccc2)[C@@]1(O)COCc1ccccc1)C(C)(O)CCc1ccccc1 (stereo partly specified) ; what GI50 value has been reported?
Result: 10.9 µM (inactive)

Request: Any idea what GI50 was measured for `N#CSCc1cccc(Nc2cc(=O)[nH]c(=O)[nH]2)c1` ?
Result: > 100 µM (inactive)
